- assayed system: T1, Fc tagged mouse TNFR1 (Sino Biological) (mouse, UniProt P25118 22-212, limits assumed)
- T1 construct: Bought reagent; also called mTNFR1; mTNFR1-Fc; not shown: Fc tag of the bought protein
- T1 sequence (looked up): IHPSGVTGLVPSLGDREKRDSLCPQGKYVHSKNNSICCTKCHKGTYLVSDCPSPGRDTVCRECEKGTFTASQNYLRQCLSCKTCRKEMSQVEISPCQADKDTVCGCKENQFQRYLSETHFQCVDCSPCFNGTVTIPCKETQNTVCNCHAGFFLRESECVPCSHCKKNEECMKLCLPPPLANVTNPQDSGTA
- protocol: SPR, Biacore single cycle kinetics, stability study, after 1 year at -20° C.
For each record, write down the corresponding Kd.
Numbers only, in nM.

Would you mind giving Kd for every binder in the list below?
1. TNF mutein B6 (ligand, Human TNF mutein, TGTYSY at positions 84-89; not shown: C-terminal FLAG tag and His6 tag from vector pANT65) VRSSSRTPSDKPVAHVVANPQAEGQLQWLNRRANALLANGVELRDNQLVVPSEGLYLIYSQVLFKGQGCPSTHVLLTHTISRITGTYSYKVNLLSAIKSPCQRETPEGAEAKPWYEPIYLGGVFQLEKGDRLSAEINRPDYLDFAESGQVYFGIIAL
2. TNF mutein F7 (ligand, Human TNF mutein, SETVVG at positions 84-89; not shown: C-terminal FLAG tag and His6 tag from vector pANT65) VHSSSRTPSDKPVAHVVANPQAEGQLQWLNRRANALLANGVELRDNQLVVPSEGLYLIYSQVLFKGQGCPSTHVLLTHTISRISETVVGKVNLLSAIKSPCQRETPEGAEAKPWYEPIYLGGVFQLEKGDRLSVEINRPDYLDFAESGQVYFGIIAL
3. TNF mutein G4 (ligand, Human TNF mutein, SSTYNP at positions 84-89; also called mutTNF G4; mutTNF; not shown: C-terminal FLAG tag and His6 tag from vector pANT65) VRSSSRTPSDKPVAHVVANPQAEGQLQWLNRRANALLANGVELRDNQLVVPSEGLYLIYSQVLFKGQGCPSTHVLLTHTISRISSTYNPKVNLLSAIKSPCQRETPEGAEAKPWYEPIYLGGVFQLEKGDRLSAEINRPDYLDFAESGQVYFGIIAL

Out:
[0.711, 0.111, 0.0692]
